Target: T1, cytoplasmic domain-lacking human NR10 on CHO cells (hNR10-expressing CHO cells) (human, UniProt Q8NI17 20-553)
T1 construct: also called NR10-expressing cells
T1 sequence: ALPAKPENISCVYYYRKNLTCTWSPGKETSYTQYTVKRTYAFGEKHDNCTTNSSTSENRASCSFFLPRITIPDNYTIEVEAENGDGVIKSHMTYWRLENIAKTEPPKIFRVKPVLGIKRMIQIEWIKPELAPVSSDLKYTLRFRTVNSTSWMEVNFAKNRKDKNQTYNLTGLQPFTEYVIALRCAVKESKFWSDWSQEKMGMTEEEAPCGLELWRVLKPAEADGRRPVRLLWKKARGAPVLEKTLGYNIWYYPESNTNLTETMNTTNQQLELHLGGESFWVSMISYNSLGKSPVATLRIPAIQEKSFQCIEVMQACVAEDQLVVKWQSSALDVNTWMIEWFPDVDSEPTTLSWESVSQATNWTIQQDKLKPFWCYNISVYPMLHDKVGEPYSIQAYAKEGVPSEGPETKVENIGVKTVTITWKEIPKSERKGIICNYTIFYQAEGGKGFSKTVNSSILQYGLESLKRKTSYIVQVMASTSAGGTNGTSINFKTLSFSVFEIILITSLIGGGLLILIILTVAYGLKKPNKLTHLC
Assay: FMAT competition on hNR10-expressing CHO cells: antibody titrated against FMAT Blue-labeled hIL-31; FL1 = cell-bound labeled hIL-31; mean±S.D. (n=3)

binder	binding result
Lp7 variant of H0L0 (antibody, V domains shown) VH: QVQLVQSGAEVKKPGASVKVSCKASGYTFTGYIMNWVRQAPGQGLEWMGLINPYNGGTSYNQKFKGRVTITADESTSTAYMELSSLRSEDTAVYYCARDGYDDGPYTMDYWGQGTLVTVSS VL: DIQMTQSPSSLSASVGDRVTITCRTSENIYSFLAWYQQKPGKAPKLLIYNAKTEAKGVPSRFSGSGSGTDFTLTISSLQPEDFATYYCQHHYESPLTFGGGTKVEIK	binds
